- experimental-protocol: Preliminary pharmacokinetics of compound of formula (I) in mice
- condition-parameters: mouse, in vivo; Mice, 12.5 mg (Oral); read-out: T1/2 (converted)
quantity-measured: half-life (h)
Unit h implied. Number only.

Input line: Answer with the recorded half-life of Cc1c(CN2CCN(c3cccc(C(F)(F)F)c3)CC2)cc(-c2ccccc2)n1NC(=O)c1ccncc1 [Compound of formula (I)] only.
Output line: 5.34

---

- experimental-protocol: Preliminary pharmacokinetics of compound of formula (I) in dog
- condition-parameters: serum, po, 12.5 mg
quantity-measured: Tmax (min)
Output spec: scalar in min, unitless text.

Input line: State, in one line, measured Tmax of Cc1c(CN2CCN(c3cccc(C(F)(F)F)c3)CC2)cc(-c2ccccc2)n1NC(=O)c1ccncc1 [Compound of formula (I)]
Output line: 45

---

- experimental-protocol: in vivo
- condition-parameters: dog, po, 12.5 mg
quantity-measured: half-life (h)
Just the number please, in h, no unit attached.

Input line: Give reported half-life value for Cc1c(CN2CCN(c3cccc(C(F)(F)F)c3)CC2)cc(-c2ccccc2)n1NC(=O)c1ccncc1 [Compound of formula (I)]
Output line: 5.07

---

- experimental-protocol: Preliminary pharmacokinetics of compound of formula (I) in dog
- condition-parameters: serum, iv, 12.5 mg
quantity-measured: AUC(0-t) (ng·h/mL)
Field: numeric (ng·h/mL). Do not append units.

Input line: Identify measured AUC(0-t) associated with "Cc1c(CN2CCN(c3cccc(C(F)(F)F)c3)CC2)cc(-c2ccccc2)n1NC(=O)c1ccncc1"
Output line: 20000

---

- experimental-protocol: Pharmacokinetics of the combination with rifampicin and pyrazinamide in mice
- condition-parameters: mouse, in vivo, po, Tmax, given together: (I) 12.5 + RIF 20.0 + PYR 150.0 mg/kg
quantity-measured: Tmax (h)
Express the result in h but write the number alone.

Input line: Tell me measured Tmax for NC(=O)c1cnccn1 [PYR, Pyrazinamide] please.
Output line: 1

Input line: Give the value of Tmax reported for the following: "CO[C@H]1/C=C/O[C@@]2(C)Oc3c(C)c(O)c4c(O)c(c(/C=N/N5CCN(C)CC5)c(O)c4c3C2=O)NC(=O)/C(C)=C\C=C\[C@H](C)[C@H](O)[C@@H](C)[C@@H](O)[C@@H](C)[C@H](OC(C)=O)[C@@H]1C"
Output line: 3.25

Input line: Identify the reported Tmax for the following entry. "Cc1c(CN2CCN(c3cccc(C(F)(F)F)c3)CC2)cc(-c2ccccc2)n1NC(=O)c1ccncc1"
Output line: 2.12

---

- experimental-protocol: Preliminary pharmacokinetics of compound of formula (I) in mice
- condition-parameters: mouse, in vivo; Mice, 12.5 mg (Oral); read-out: AUClast
quantity-measured: AUC(0-t) (ng·h/mL)
All answers are understood in ng·h/mL, so give the number only.

Input line: Provide measured AUC(0-t) value, entry: "Cc1c(CN2CCN(c3cccc(C(F)(F)F)c3)CC2)cc(-c2ccccc2)n1NC(=O)c1ccncc1"
Output line: 2210

---

- experimental-protocol: Acute toxicity by oral route in mice
- condition-parameters: mouse, in vivo
quantity-measured: LD50 (mg/kg)
Express your answer in mg/kg, writing the number without its unit.

Input line: Identify measured LD50 corresponding to "Cc1c(CN2CCN(c3cccc(C(F)(F)F)c3)CC2)cc(-c2ccccc2)n1NC(=O)c1ccncc1"
Output line: 700
